Could you please report measured IC50 for the items listed next?
tested on: MDA-MB-468 cells; test: Determination of activity of MDA-MB-468 cells (CellTiter-Glo); assay type: cell-based; details: Homo sapiens, MDA-MB-468, 120 h, 5 days culture

Exam item: Return IC50 measured with MDA-MB-468 cells given this molecule: CC(C)n1c(CF)nc2c(F)cc(-c3nc(Nc4ccc(CN5CCC(N(C)C)CC5)cn4)ncc3F)cc21 [Compound 1975]
Marked response: 457 nM

Exam item: Return IC50 measured with MDA-MB-468 cells given this molecule: CCN1CCN(Cc2ccc(Nc3ncc(F)c(-c4cc(F)c5nc(CO)n(C(C)C)c5c4)n3)nc2)CC1 [Compound 1994]
Marked response: 485 nM

Exam item: Return IC50 measured with MDA-MB-468 cells given this molecule: Cc1nc2c(F)cc(-c3nc(Nc4ccc(CN5CCN(CCO)CC5)cn4)ncc3F)cc2n1C(C)C [Compound 1979]
Marked response: 1390 nM

Exam item: Return IC50 measured with MDA-MB-468 cells given this molecule: CC(C)n1c(CF)nc2c(F)cc(-c3nc(Nc4ccc(CN5CCC(N(C)CCO)CC5)cn4)ncc3F)cc21 [Compound 1995]
Marked response: 186 nM

Exam item: Return IC50 measured with MDA-MB-468 cells given this molecule: CCN1CCN(Cc2ccc(Nc3ncc(F)c(-c4cc(F)c5nc(CF)n(C(C)C)c5c4)n3)nc2)CC1 [Compound 1978]
Marked response: 1150 nM

Exam item: Return IC50 measured with MDA-MB-468 cells given this molecule: CNC1CCN(c2ccc(Nc3ncc(F)c(-c4cc(F)c5nc(C)n(C(C)C)c5c4)n3)nc2)CC1 [Compound 1967]
Marked response: 682 nM

Exam item: Return IC50 measured with MDA-MB-468 cells given this molecule: Cc1nc2c(F)cc(-c3nc(Nc4ccc(N5CCN(CC(C)O)CC5)cn4)ncc3F)cc2n1C(C)C (centres unmarked) [Compound 1987]
Marked response: 345 nM

Exam item: Return IC50 measured with MDA-MB-468 cells given this molecule: Cc1nc2c(F)cc(-c3nc(Nc4ccc(N5CCC(N(C)CCO)CC5)cn4)ncc3F)cc2n1C(C)C [Compound 1963]
Marked response: 459 nM

Exam item: Return IC50 measured with MDA-MB-468 cells given this molecule: CCN1CCN(c2ccc(Nc3ncc(F)c(-c4cc(F)c5nc(CF)n(C(C)C)c5c4)n3)nc2)CC1 [Compound 1985]
Marked response: 454 nM

Exam item: Return IC50 measured with MDA-MB-468 cells given this molecule: COCCN1CCN(c2ccc(Nc3ncc(F)c(-c4cc(F)c5nc(C)n(C(C)C)c5c4)n3)nc2)CC1 [Compound 1988]
Marked response: 529 nM

Exam item: Return IC50 measured with MDA-MB-468 cells given this molecule: CC(C)n1c(CF)nc2c(F)cc(-c3nc(Nc4ccc(N5CCC(N(C)C)CC5)cn4)ncc3F)cc21 [Compound 1984]
Marked response: 344 nM

Exam item: Return IC50 measured with MDA-MB-468 cells given this molecule: CC(C)n1c(CF)nc2c(F)cc(-c3nc(Nc4ccc(N5CCC(N(C)CCO)CC5)cn4)ncc3F)cc21 [Compound 1990]
Marked response: 276 nM

Exam item: Return IC50 measured with MDA-MB-468 cells given this molecule: Cc1nc2c(F)cc(-c3nc(Nc4ccc(CN5CCC(N(C)CCO)CC5)cn4)ncc3F)cc2n1C(C)C [Compound 1964]
Marked response: 126 nM

Exam item: Return IC50 measured with MDA-MB-468 cells given this molecule: Cc1nc2c(F)cc(-c3nc(Nc4ccc(N5CCN(CCO)CC5)cn4)ncc3F)cc2n1C(C)C [Compound 1986]
Marked response: 573 nM
